Target System: Neuronal acetylcholine receptor; alpha4/beta2 (Homo sapiens, UniProt P17787+P43681)
Sequence (P17787 whole entry): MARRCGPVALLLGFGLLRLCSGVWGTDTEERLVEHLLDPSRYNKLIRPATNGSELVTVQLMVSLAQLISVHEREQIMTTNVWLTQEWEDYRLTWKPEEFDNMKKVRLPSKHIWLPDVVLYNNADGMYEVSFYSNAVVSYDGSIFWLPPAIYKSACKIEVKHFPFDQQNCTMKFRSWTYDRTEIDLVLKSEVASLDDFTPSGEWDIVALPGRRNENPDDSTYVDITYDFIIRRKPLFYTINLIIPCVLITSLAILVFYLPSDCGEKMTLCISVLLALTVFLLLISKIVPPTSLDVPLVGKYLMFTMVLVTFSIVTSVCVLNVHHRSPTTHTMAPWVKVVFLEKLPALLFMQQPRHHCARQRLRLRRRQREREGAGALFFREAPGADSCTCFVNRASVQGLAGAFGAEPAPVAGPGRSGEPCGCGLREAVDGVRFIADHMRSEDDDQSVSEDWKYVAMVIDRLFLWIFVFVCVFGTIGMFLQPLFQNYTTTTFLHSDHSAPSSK
Sequence (P43681 whole entry): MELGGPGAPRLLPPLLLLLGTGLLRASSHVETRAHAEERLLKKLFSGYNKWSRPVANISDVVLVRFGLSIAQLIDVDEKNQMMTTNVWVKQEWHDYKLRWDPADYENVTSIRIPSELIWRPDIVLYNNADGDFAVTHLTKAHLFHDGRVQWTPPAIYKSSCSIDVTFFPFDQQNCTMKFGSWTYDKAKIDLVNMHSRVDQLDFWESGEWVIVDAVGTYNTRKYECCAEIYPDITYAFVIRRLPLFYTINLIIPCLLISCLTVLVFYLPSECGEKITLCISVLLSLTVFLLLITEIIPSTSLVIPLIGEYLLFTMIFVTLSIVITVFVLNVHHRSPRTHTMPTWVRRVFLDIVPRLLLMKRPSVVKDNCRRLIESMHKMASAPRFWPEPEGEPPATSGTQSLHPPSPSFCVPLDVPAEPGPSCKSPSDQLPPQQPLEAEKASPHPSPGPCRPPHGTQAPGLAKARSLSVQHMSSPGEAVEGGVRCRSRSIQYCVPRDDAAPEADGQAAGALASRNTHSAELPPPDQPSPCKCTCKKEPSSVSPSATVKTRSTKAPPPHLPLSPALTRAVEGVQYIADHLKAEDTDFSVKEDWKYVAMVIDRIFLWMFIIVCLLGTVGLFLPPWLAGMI
Measurement Notes: Intrinsic activity at human alpha-4-beta-2 nACHR in SH-EP1 cells relative to ACh
Parameter Measured: EC50 (µM)
Record the value in µM, omitting the unit from your answer.

Request: # get_value(readout='EC50', item= c1cc2c(cn1)C1CCC(CC2)N1 (single isomer, unassigned; (+)) )
Result: 5.5

----------
Organism: Mus musculus
Measurement Notes: Hypothermia in mouse
Assay type: functional
Test Settings: Mus musculus; read-out: ED50
Parameter Measured: ED50

Request: # get_value(readout='ED50', item= Clc1ccc([C@@H]2C[C@H]3CC[C@@H]2N3)cn1 [(+)-EPIBATIDINE] )
Result: 0.004 mg/kg

Request: # get_value(readout='ED50', item= c1cc2c(cn1)C1CCC(CC2)N1 (racemic) )
Result: 1.6 mg/kg

Request: # get_value(readout='ED50', item= `CN1CCC[C@H]1c1cccnc1` )
Result: 1 mg/kg

Request: # get_value(readout='ED50', item= Clc1ccc([C@H]2C[C@@H]3CC[C@H]2N3)cn1 [(-)-EPIBATIDINE] )
Result: 0.004 mg/kg

Now, please, on to the next compound.
Request: # get_value(readout='ED50', item= `CN1CCC[C@@H]1c1cccnc1` )
Result: 7.6 mg/kg
